PROPERTY NAME: GI50 (µM)
Report only the number, with the unit µM understood.

Enter GI50 (test system MCF-7 cells) for N#Cc1nc(N2CCOCC2)nc(-n2cnc3ccccc32)n1 3.8

Enter GI50 (test system MCF-7 cells) for c1ccc2c(c1)ncn2-c1nc(N2CCOCC2)cc(N2CCSCC2)n1 3.9

Enter GI50 (test system MCF-7 cells) for c1ccc2c(c1)ncn2-c1cc(N2CCOCC2)nc(N2CCOCC2)n1 4.6

Enter GI50 (test system MCF-7 cells) for C[C@@H]1CN(c2nc(N3CCO[C@@H](C)[C@H]3C)nc(-n3cnc4ccccc43)n2)C[C@H](C)O1 (relative stereo) 3.9

Enter GI50 (test system MCF-7 cells) for OC1CCCN(c2nc(N3CCOCC3)nc(-n3cnc4ccccc43)n2)C1 (centres unmarked) 3.9

Enter GI50 (test system MCF-7 cells) for c1ccc2c(c1)ncn2-c1nc(N2CCOCC2)cc(N2CCOCC2)n1 4.3

Enter GI50 (test system MCF-7 cells) for c1ccc2c(c1)ncn2-c1nc(N2CCOCC2)nc(N2CCC3(CC2)OCCO3)n1 5

Enter GI50 (test system MCF-7 cells) for C[C@@H]1CN(c2cc(N3CCOCC3)nc(-n3cnc4ccccc43)n2)C[C@H](C)O1 3.2

Enter GI50 (test system MCF-7 cells) for CC(C)(C)OC(=O)NCC1CN(c2nc(N3CCOCC3)nc(-n3cnc4ccccc43)n2)CCO1 (centres unmarked) 6.3

Enter GI50 (test system MCF-7 cells) for C[C@@H]1OCCN(c2nc(N3CCOCC3)nc(-n3cnc4ccccc43)n2)[C@@H]1C (relative stereo) 1

Enter GI50 (test system MCF-7 cells) for CN(Cc1ccccc1)CC1CN(c2nc(N3CCOCC3)nc(-n3cnc4ccccc43)n2)CCO1 (centres unmarked) 6.8

Enter GI50 (test system MCF-7 cells) for CC1(C)CN(c2nc(N3CCOCC3)nc(-n3cnc4ccccc43)n2)CCO1 1.7

Enter GI50 (test system MCF-7 cells) for C[C@@H]1CN(c2nc(N3CCOCC3)nc(-n3cnc4ccccc43)n2)C[C@H](C)O1 2.9

Enter GI50 (test system MCF-7 cells) for FC(F)(F)C1CN(c2nc(N3CCOCC3)nc(-n3cnc4ccccc43)n2)CCO1 (centres unmarked) 7.2
